Data provenance is patent US20130029928A1.

Experimental Details: Phase I study CXR1002-001: plasma pharmacokinetics (LC-MS/MS)
Assay type: in vivo, human
Condition Details: human, plasma, oral, 600 mg, Patient 022, 600 mg, person, plasma, 336 hr (Day 15); read-out: Concentration
Endpoint Name: concentration at 336 h (µM)
Hi! Could you send only the number? It should be in µM, unit omitted.

State, in one line, measured concentration at 336 h of O=C(O)C(F)(F)C(F)(F)C(F)(F)C(F)(F)C(F)(F)C(F)(F)C(F)(F)F [CXR1002]
289

----------
Experimental Details: Phase I study CXR1002-001: plasma pharmacokinetics (LC-MS/MS)
Type: in vivo, human
Condition Details: human, plasma, oral, 300 mg, Patient 011 Dose 300 mg; 336 hr (Day 15); read-out: Concentration
Endpoint Name: concentration at 336 h
# output: numeric value plus its unit

State, in one line, measured concentration at 336 h of O=C(O)C(F)(F)C(F)(F)C(F)(F)C(F)(F)C(F)(F)C(F)(F)C(F)(F)F [CXR1002]
131 µM
